Target: NAMPT (Homo sapiens, UniProt P43490)
Construct: His tag; host or cells: E. coli
Sequence (P43490 whole entry): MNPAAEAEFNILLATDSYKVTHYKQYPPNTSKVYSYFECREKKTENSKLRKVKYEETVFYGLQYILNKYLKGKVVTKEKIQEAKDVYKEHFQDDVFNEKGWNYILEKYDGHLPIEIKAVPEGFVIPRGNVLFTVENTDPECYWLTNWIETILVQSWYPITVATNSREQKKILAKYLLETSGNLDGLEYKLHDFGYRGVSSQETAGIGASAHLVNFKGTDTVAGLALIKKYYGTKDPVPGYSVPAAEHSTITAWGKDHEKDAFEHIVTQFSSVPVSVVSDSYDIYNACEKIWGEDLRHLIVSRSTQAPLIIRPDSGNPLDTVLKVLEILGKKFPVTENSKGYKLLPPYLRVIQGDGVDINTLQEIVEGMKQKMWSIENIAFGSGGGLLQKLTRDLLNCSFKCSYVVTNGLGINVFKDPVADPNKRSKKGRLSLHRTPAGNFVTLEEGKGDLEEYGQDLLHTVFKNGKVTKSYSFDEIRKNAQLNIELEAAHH
Test: Biochemical inhibition assay: NAMPT enzymatic reaction, NMN quantified by mass spectrometry
Settings: NAMPT enzymatic assay; read-out: Biochem IC50
Collected IC50 values appear next to each entry.
Give the value, in units of nM, as a plain number.

Consider the worked cases shown below.
smiles_string=O=C(NCc1ccc(S(=O)(=O)c2cc(F)cc(OCC(F)(F)F)c2)cc1)c1cc2ccncc2s1 assay_system="NAMPT (Homo sapiens, UniProt P43490)" measured_metric=IC50 readout_number=2.9
smiles_string=CCOCc1ccccc1S(=O)(=O)c1ccc(CNC(=O)c2cnc3[nH]ncc3c2)cc1 assay_system="NAMPT (Homo sapiens, UniProt P43490)" measured_metric=IC50 readout_number=52
smiles_string=COc1ccc(S(=O)(=O)c2ccc(CNC(=O)c3cc4cnccc4[nH]3)cc2)c(OC)c1 assay_system="NAMPT (Homo sapiens, UniProt P43490)" measured_metric=IC50 readout_number=27

Pending molecule:
Per the record, O=C(NCc1ccc(S(=O)(=O)c2ccccc2)cc1)c1cnc2nccn2c1 has IC50 of 2

----------
Collected pIC50 values appear next to each entry.
Biological target: NAMPT (Homo sapiens, UniProt P43490)
Construct: His tag; host or cells: E. coli
Assay: Biochemical inhibition assay: NAMPT enzymatic reaction, NMN quantified by mass spectrometry
Settings: NAMPT enzymatic reaction; read-out: Biochem IC50
Entry type: numeric. Quantity: pIC50, the -log10 of concentration in molar units.

Consider the worked cases shown below.
smiles_string=N#Cc1ccc(S(=O)(=O)c2ccc(CNC(=O)c3cc4ccncc4o3)cc2)cc1 measured_metric=pIC50 readout_number=8.28
smiles_string=O=C(NCc1ccc(S(=O)(=O)c2c(Cl)cccc2Cl)cc1)c1cnc2nccn2c1 measured_metric=pIC50 readout_number=7.87
smiles_string=O=C(NCc1ccc(S(=O)(=O)N2CCCCC2)cc1)c1cnc2[nH]ncc2c1 measured_metric=pIC50 readout_number=7.77

# pIC50 measured on NAMPT (Homo sapiens, UniProt P43490) for item O=C(NCc1ccc(S(=O)(=O)c2c(F)cccc2Cl)cc1)c1ccc2nccn2c1 = 6.76

----------
Molecular target: NAMPT (Homo sapiens, UniProt P43490)
Construct: His tag; host or cells: E. coli
Test: Biochemical inhibition assay: NAMPT enzymatic reaction, NMN quantified by mass spectrometry
Settings: NAMPT enzymatic reaction; read-out: Biochem IC50
Collected IC50 values appear next to each entry.
Give the value, in units of nM, as a plain number.

smiles_string=O=C(NCc1ccc(S(=O)(=O)c2cc(Cl)cc(Cl)c2)cc1)c1ccc2nccn2c1 assay_system="NAMPT (Homo sapiens, UniProt P43490)" measured_metric=IC50 value_unit=nM readout_number=5.49

Per the record, CCCCOc1cccc(F)c1S(=O)(=O)c1ccc(CNC(=O)c2cc3cnccc3[nH]2)cc1 has IC50 of 8.8

Per the record, O=C(NCc1ccc(S(=O)(=O)c2cc(Cl)ccc2O)cc1)c1ccc2nccn2c1 has IC50 of 14

Per the record, CC(=O)c1ccccc1S(=O)(=O)c1ccc(CNC(=O)c2cc3ccncc3o2)cc1 has IC50 of 5.7

----------
Target: NAMPT (Homo sapiens)
Construct: His tag; host or cells: E. coli
Test: Biochemical inhibition assay: NAMPT enzymatic reaction, NMN quantified by mass spectrometry
Details: NAMPT enzymatic assay; read-out: Biochem IC50
From the text: Biochemical Inhibition Assay NAMPT Protein Purification Recombinant His-tagged NAMPT was produced in E. coli cells, purified over a Ni column, and further purified over a size-exclusion column by XTAL Biostructures. The NAMPT Enzymatic Reaction […] A mass spectrometry-based assay was used to measure the NAMPT reaction product (NMN) and the internal control (L-Cystathionine). NMN and L-Cystathionine were detected using the services of Biocius Lifesciences with the RapidFire system. […]
pIC50: −log10 of the molar value.
Please enter satisfied where pIC50 is greater than or equal to 8, and not satisfied where it is lower.

Below, 5 molecules whose answers are already recorded.
smiles_string=COCc1cccc(S(=O)(=O)c2ccc(CNC(=O)c3cc4cnccc4[nH]3)cc2)c1 category="not satisfied"
smiles_string=O=C(NCc1ccc(S(=O)(=O)c2cnn(-c3cccc(Cl)c3)c2)cc1)c1cc2ccncc2s1 category=satisfied
smiles_string=CCN(C)c1ncc(S(=O)(=O)c2ccc(CNC(=O)c3cc4ccncc4o3)cc2)s1 category=satisfied
smiles_string=CCOCc1ccccc1S(=O)(=O)c1ccc(CNC(=O)c2cc3cnccc3[nH]2)cc1 category="not satisfied"
smiles_string=O=C(NCc1ccc(S(=O)(=O)c2ccc(C(F)(F)F)cc2C(F)(F)F)cc1)c1cc2ccncc2s1 category="not satisfied"

Q: Hi, just wondering whether COc1cccc(S(=O)(=O)c2ccc(CNC(=O)c3ccc4nccn4c3)cc2)n1 shows pIC50 of 8 or higher.
Ans: satisfied

Q: Hi, just wondering whether CC(C)Oc1ccc(Cl)cc1S(=O)(=O)c1ccc(CNC(=O)c2cnc3[nH]ncc3c2)cc1 shows pIC50 of 8 or higher.
Ans: not satisfied

Q: Hi, just wondering whether O=C(NCc1ccc(S(=O)(=O)c2cccc(OC(F)(F)F)c2)cc1)c1cc2ccncc2o1 shows pIC50 of 8 or higher.
Ans: satisfied
